// reported half-life at 200 μM for each item listed
EXPERIMENTAL DETAILS: Cyclization kinetics of model thioethers and sulfoxides by RP-HPLC
Type: physicochemical
ASSAY CONTEXT: PBS, pH 7.4, 200 μM in PBS/DMSO (98:2), 37 °C, pH 7.4; read-out: t 1/2 (thioether) (3a–g), cyclization (converted)
Enter your answer as a number in h; do not include the unit.

Quick check: half-life at 200 μM of COC(=O)c1ccccc1SCC#N [3a, Methyl 2-((Cyanomethyl)thio)benzoate] ?
5

Quick check: half-life at 200 μM of COC(=O)CSc1ccccc1C(=O)OC ?
6

Quick check: half-life at 200 μM of COC(=O)c1ccccc1SCC(=O)C(C)(C)C ?
10

---

// reported half-life at 200 μM for each item listed
EXPERIMENTAL DETAILS: Cyclization kinetics of model thioethers and sulfoxides by RP-HPLC
Format: physicochemical
ASSAY CONTEXT: PBS, pH 7.4, 200 μM in PBS/DMSO (98:2), 37 °C, pH 7.4; read-out: t 1/2 (sulfoxide) (4a–g), cyclization (converted)
Enter your answer as a number in h; do not include the unit.

Past entries and their recorded results:
COMPOUND: COC(=O)c1ccccc1[S+]([O-])CC(=O)C(C)(C)C (stereo not shown)
half-life at 200 μM, h: 1.5

COMPOUND: COC(=O)c1ccccc1[S+]([O-])CC#N (stereo not shown) [4a, Methyl 2-((Cyanomethyl)sulfinyl)benzoate]
half-life at 200 μM, h: 0.667

COMPOUND: CCCNC(=O)C[S+]([O-])c1ccccc1C(=O)OC (stereo not shown)
half-life at 200 μM, h: 7.5

Quick check: half-life at 200 μM of COC(=O)C[S+]([O-])c1ccccc1C(=O)OC (stereo not shown) ?
0.667

---

EXPERIMENTAL DETAILS: Cyclization kinetics of model thioethers and sulfoxides by RP-HPLC
Type: physicochemical
ASSAY CONTEXT: PBS, pH 7.4, 200 μM in PBS/DMSO (98:2), 37 °C, pH 7.4; read-out: t 1/2 (thioether) (3a–g), cyclization (converted)
// reported half-life at 200 μM for each item listed

Past entries and their recorded results:
MOLECULE: COC(=O)c1ccccc1SCC(=O)O [3g]
half-life at 200 μM: > 48 h
--
MOLECULE: COC(=O)c1ccccc1SCC(F)(F)F [3b]
half-life at 200 μM: > 48 h

Lab note: next molecule to report on.
Quick check: half-life at 200 μM of COC(=O)c1ccccc1SCC(N)=O [3e] ?
> 48 h

---

EXPERIMENTAL DETAILS: Cyclization kinetics of model thioethers and sulfoxides by RP-HPLC
Format: physicochemical
ASSAY CONTEXT: PBS, pH 7.4, 200 μM in PBS/DMSO (98:2), 37 °C, pH 7.4; read-out: t 1/2 (sulfoxide) (4a–g), cyclization (converted)
// reported half-life at 200 μM for each item listed

MOLECULE: COC(=O)c1ccccc1[S+]([O-])CC(N)=O (stereo not drawn)
RESULT: ~2.17 h
--
MOLECULE: COC(=O)c1ccccc1[S+]([O-])CC(F)(F)F (stereo not drawn)
RESULT: > 48 h

Lab note: next molecule to report on.
Quick check: half-life at 200 μM of COC(=O)c1ccccc1[S+]([O-])CC(=O)O (stereo not drawn) ?
> 48 h
